Test target: T1, 4H3915-AA
T1 chain: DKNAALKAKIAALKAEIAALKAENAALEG
Experiment description: two-hybrid library CCmax;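 also: natural log of median RNA to DNA barcode read ratio; higher means stronger binding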
Assay context: mean of both orientations
Metric name: interaction score
The answer should be a number; do not append a unit.

In [3]: df
Out[3]:
                                     binder  quantitative_readout
0  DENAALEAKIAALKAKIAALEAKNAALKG [4H1384-AA]                -0.264
1  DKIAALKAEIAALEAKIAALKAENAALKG [4H2604-AA]                 0.216

Q) Given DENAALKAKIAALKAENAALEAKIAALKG [4H1878-AA] , state its recorded interaction score.
A) -1.7

Q) What do you get for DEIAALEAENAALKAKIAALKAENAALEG [4H235-AA] ?
A) -1.49

Q) What do you get for DKNAALKAENAALKAEIAALEAEIAALEG [4H3777-AA] ?
A) -0.495

Q) What do you get for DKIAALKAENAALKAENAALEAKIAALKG [4H2774-AA] ?
A) -1.36

Q) What do you get for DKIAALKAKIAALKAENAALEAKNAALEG [4H2903-AA] ?
A) -1.48

Q) What do you get for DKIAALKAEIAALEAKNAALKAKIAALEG [4H2621-AA] ?
A) -1.18

Q) What do you get for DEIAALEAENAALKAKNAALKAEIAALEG [4H249-AA] ?
A) -0.705

Q) What do you get for DEIAALEAKIAALKAEIAALEAENAALKG [4H324-AA] ?
A) 0.128

Q) What do you get for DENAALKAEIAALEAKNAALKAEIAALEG [4H1593-AA] ?
A) -1.62

Q) What do you get for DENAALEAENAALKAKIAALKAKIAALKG [4H1262-AA] ?
A) -0.487

Q) What do you get for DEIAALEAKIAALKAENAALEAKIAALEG [4H341-AA] ?
A) -1.31

Q) What do you get for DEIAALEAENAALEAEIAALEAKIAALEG [4H133-AA] ?
A) 1.08

These entries and their values trace back to paper PMC10397247.
